B1: Histidine--tRNA ligase, cytoplasmic, residues 8 to 45; numbered along this chain, P12081 (parent)
chain: EELVKLQGERVRGLKQQKASAELIEEEVAKLLKLKAQL

# Variants of: B1
# test: abundance fitness (aPCA) (normalised: wild type 0, dead -1); higher = more abundant; growth selection in yeast, the domain comes from the species named
# details: Homo sapiens
I'd appreciate it if you could supply abundance fitness values for the items below.
Hey, just send me the number, nothing else.

Give the value of abundance fitness reported for the following: K33I
-0.407

Give the value of abundance fitness reported for the following: Q17G
-0.071

Give the value of abundance fitness reported for the following: L31S
0.026

Give the value of abundance fitness reported for the following: V28L
-0.271

Give the value of abundance fitness reported for the following: K18A
0.047

Give the value of abundance fitness reported for the following: K15Y
-0.41

Give the value of abundance fitness reported for the following: L3E
0.203

Give the value of abundance fitness reported for the following: G8R
-0.04

Give the value of abundance fitness reported for the following: S20E
0.068

Give the value of abundance fitness reported for the following: L32N
0.247

Give the value of abundance fitness reported for the following: R10Q
-0.097
